Provenance of the data: BindingDB's records for doi:10.1016/j.ejmech.2017.11.032

method.description: Inhibition of bacterial C-terminal His6-tagged ErmC' expressed in Escherichia coli BL21(DE3) assessed as decrease of protein binding to [gamma-33P]ATP-labeled 32-nt oligonucleotide after 30 mins by filter binding assay
pKd: −log10 of the molar value.
endpoint: pKd

[A] Cc1cccc(Nc2nc(C(=O)N3CCN(c4ccc(C(F)(F)F)cn4)CC3)cs2)n1
[B] O=C(c1csc(Nc2ncccn2)n1)N1CCN(c2ccc(C(F)(F)F)cn2)CC1
Between the entries labelled A and B , which has a larger pKd value on record? Kindly state the label of the option you pick. B
(B: 7.40, A: 5.98)

---

method.description: Inhibition of bacterial C-terminal His6-tagged ErmC' (unknown origin) expressed in Escherichia coli BL21(DE3) assessed as decrease in rRNA methylation using [methyl-3H]AdoMet measured after 1 hr
endpoint: IC50 (µM)

// below: answered compounds
>  <compound.string>
O=C(c1csc(Nc2ncccn2)n1)N1CCN(c2ccc(C(F)(F)F)cn2)CC1

>  <IC50, µM>
110

$$$$
>  <compound.string>
CCCc1cc(C(=O)Nc2cccc(OCc3ccncc3)c2)[nH]n1

>  <IC50, µM>
250

$$$$

[1] Cc1cccc(Nc2nc(C(=O)N3CCN(c4ccc(C(F)(F)F)cn4)CC3)cs2)n1
[2] O=C(NCc1cccc(Cn2ccnc2)c1)c1cc2ccccc2o1
Could you kindly indicate whether 1 or 2 has the higher IC50 value? Indicate your choice by writing its label. 2

---

method.description: Inhibition of bacterial C-terminal His6-tagged ErmC' expressed in Escherichia coli ER2566 assessed as decrease in rRNA methylation using [methyl-3H]AdoMet measured after 1 hr
pIC50: −log10 of the molar value.
endpoint: pIC50

>  <compound.string>
Cc1ccc(Sc2cc(C)c(C#N)c(Sc3ccc(C)cc3)n2)cc1

>  <pIC50>
3.74

$$$$
>  <compound.string>
Clc1ccccc1Cn1nnc2c(N/N=C/c3cccnc3)ncnc21

>  <pIC50>
3.60

$$$$
>  <compound.string>
O=C1c2ccccc2C(=O)N1CN(CCCn1ccnc1)CN1C(=O)c2ccccc2C1=O

>  <pIC50>
3.52

$$$$
>  <compound.string>
COC(=O)c1sc2ccccc2c1OS(=O)(=O)c1ccc(Cl)cc1

>  <pIC50>
3.60

$$$$

---

method.description: Non-competitive inhibition of bacterial C-terminal His6-tagged ErmC' (unknown origin) expressed in Escherichia coli BL21(DE3) in presence of [methyl-3H]SAM
pIC50: −log10 of the molar value.
pIC50 values for the compounds below.

Below: 8 compounds and their reported pIC50.
>  <compound.string>
O=C(CSc1nnc2c(n1)[nH]c1ccccc12)Nc1ccccn1

>  <pIC50>
< 3.60

$$$$
>  <compound.string>
O=C(c1cn(-c2ccccc2)nn1)N1CCN(c2ccc(C(F)(F)F)cn2)CC1

>  <pIC50>
3.30

$$$$
>  <compound.string>
O=C(Nc1cccc(NCc2ccncc2)c1)c1ccccc1Cl

>  <pIC50>
< 3.30

$$$$
>  <compound.string>
O=C(c1cc(C2CC2)n[nH]1)N1CCN(c2ccc(C(F)(F)F)cn2)CC1

>  <pIC50>
< 3.30

$$$$
>  <compound.string>
COc1ccc(C(=O)CSc2nc(O)cc(=O)[nH]2)cc1

>  <pIC50>
< 3.30

$$$$
>  <compound.string>
CC(=O)c1c[nH]c(C(=O)N2CCN(c3ccc(C(F)(F)F)cn3)CC2)c1

>  <pIC50>
< 3.30

$$$$
>  <compound.string>
O=C(Nc1ccn(CCc2ccncc2)n1)Nc1ccc(F)cc1F

>  <pIC50>
3.30

$$$$
>  <compound.string>
CN(C)c1ccc(CNC(=O)c2ccc(-n3cncn3)cc2)cc1

>  <pIC50>
< 3.30

$$$$

Look up pIC50: Nn1c(SCc2nc3ccccc3[nH]2)nnc1-c1ccncc1 3.30

I'd like to know its pIC50. The compound in question is O=C(Nc1ccncc1)c1ccn(COc2ccc(F)c(Cl)c2)n1 < 3.30

Can you look up the measured pIC50 of Cc1occc1C(=O)Nc1nc(CC(=O)Nc2ccccc2)cs1 for me? 3.60

Data request, read-out pIC50, for O=C(Cc1cn2ccsc2n1)Nc1cccc(N2CCCC2=O)c1 < 3.30

For O=C(Cc1cccc(F)c1)Nc1cccc(-c2ccn[nH]2)c1 , what is its reported pIC50? 3.30

pIC50 lookup needed for O=C(c1cnn[nH]1)N1CCN(c2ccc(C(F)(F)F)cn2)CC1 , thanks. < 3.30

Item under review: O=C(Nc1cccc(NC(=O)c2cccc(F)c2)c1)c1ccncc1 . Reported pIC50? 3.60

Which pIC50 is listed for O=C(c1n[nH]c(=O)[nH]1)N1CCN(c2ccc(C(F)(F)F)cn2)CC1 ? < 3.30

---

method.description: Inhibition of bacterial C-terminal His6-tagged ErmC' (unknown origin) expressed in Escherichia coli BL21(DE3) assessed as decrease in rRNA methylation using [methyl-3H]AdoMet measured after 1 hr
pIC50: −log10 of the molar value.
endpoint: pIC50

>  <compound.string>
O=C(NC1CCN(c2nc3ccccc3s2)CC1)c1ccncc1

>  <endpoint>
pIC50

>  <test.value>
< 3.30

$$$$
>  <compound.string>
O=C(Nc1nccs1)c1cc(-c2ccccn2)nc2ccccc12

>  <endpoint>
pIC50

>  <test.value>
< 3.60

$$$$
>  <compound.string>
O=C(c1cc(Cl)c[nH]1)N1CCN(c2ncc(C(F)(F)F)cc2Cl)CC1

>  <endpoint>
pIC50

>  <test.value>
< 3.30

$$$$
>  <compound.string>
FC(F)(F)c1ccc(N2CCN(Cc3cn4ccccc4n3)CC2)nc1

>  <endpoint>
pIC50

>  <test.value>
< 3.30

$$$$
>  <compound.string>
O=C(CSc1nc2cccnc2[nH]1)Nc1nccs1

>  <endpoint>
pIC50

>  <test.value>
< 3.30

$$$$

Proceed to the following item.
Requested read-out: pIC50. Entry: Nc1nc(N)nc(CSc2nnc(NCc3ccccc3)s2)n1 < 3.30
